All values here come from ChEMBL document CHEMBL5032511.

# assay details: Oral bioavailability in Sprague-Dawley rat at 5 mg/kg by LCMS analysis
# Assay type: ADME, organism-based
# condition description: in vivo
measurement type: bioavailability (%)

Cc1cc(/C=C/C#N)cc(C)c1Nc1ccnc(Nc2ccc(C#N)cc2)n1.Cl [RILPIVIRINE HYDROCHLORIDE]    32
Cl.N#Cc1ccc(Nc2nccc(Nc3c(F)cc(-c4ccncc4)cc3F)n2)cc1    126
N#Cc1ccc(Nc2nccc(Nc3c(F)cc(-c4ccc(C#N)cc4)cc3F)n2)cc1    44

====

# System: Human immunodeficiency virus 1
# assay details: Antiviral activity against HIV1 IIIB infected human MT4 cells assessed as protection against virus-induced cytopathic effect by MTT assay
# Format: functional, organism-based
# condition description: Human immunodeficiency virus 1, IIIB
Listed below: EC50 values for each entry.
measurement type: EC50 (nM)

N#Cc1ccc(Nc2nccc(Nc3c(F)cc(-c4ccnc(C#N)c4F)cc3F)n2)cc1    2
N#Cc1ccc(Nc2nccc(Nc3c(F)cc(-c4ccco4)cc3F)n2)cc1    2.1
Cc1cc(-c2ccc(C#N)cc2)cc(C)c1Nc1ccnc(Nc2ccc(C#N)cc2)n1    1
N#Cc1ccc(Nc2nccc(Nc3c(F)cc(-c4ccnc(F)c4F)cc3F)n2)cc1    2
N#Cc1ccc(Nc2nccc(Nc3c(F)cc(-c4ccnc(F)c4)cc3F)n2)cc1    3.8
N#Cc1ccc(Nc2nccc(Nc3c(F)cc(-c4cccnc4)cc3F)n2)cc1    7.4
N#Cc1ccc(Nc2nccc(Nc3c(F)cc(-c4ccnc(-c5ccnc(Cl)c5)c4)cc3F)n2)cc1    16.8
N#Cc1ccc(Nc2nccc(Nc3c(F)cc(-c4ccsc4)cc3F)n2)cc1    3.9
N#Cc1ccc(Nc2nccc(Nc3c(F)cc(-c4cc(F)nc(F)c4)cc3F)n2)cc1    5.6
N#Cc1ccc(Nc2nccc(Nc3c(F)cc(-c4ccnc(Cl)c4Cl)cc3F)n2)cc1    5.5
Cc1cc(-c2cc(F)c(Nc3ccnc(Nc4ccc(C#N)cc4)n3)c(F)c2)ccn1    4.1
N#Cc1ccc(Nc2nccc(Nc3c(F)cc(-c4coc5ccccc45)cc3F)n2)cc1    44
Cc1cc(-c2cc(F)c(Nc3ccnc(Nc4ccc(C#N)cc4)n3)c(F)c2)cc(C)n1    56
N#Cc1ccc(Nc2nccc(Nc3c(F)cc(-c4cc(Cl)nc(Cl)c4)cc3F)n2)cc1    56
N#Cc1ccc(Nc2nccc(Nc3c(F)cc(-c4csc5ccccc45)cc3F)n2)cc1    124
N#Cc1ccc(Nc2nccc(Nc3c(F)cc(-c4cncnc4)cc3F)n2)cc1    11.9
N#Cc1ccc(Nc2nccc(Nc3c(F)cc(-c4ccncc4F)cc3F)n2)cc1    1.3
COc1cc(-c2cc(F)c(Nc3ccnc(Nc4ccc(C#N)cc4)n3)c(F)c2)ccn1    13
Cc1cc(C#Cc2ccccc2)cc(C)c1Oc1ccnc(Nc2ccc(C#N)cc2)n1    38
N#Cc1ccc(Nc2nccc(Nc3c(F)cc(-c4ccoc4)cc3F)n2)cc1    3.2

====

# Tested on: Human immunodeficiency virus 1
# assay details: Anti-viral activity against HIV1 harboring RT K103N mutant infected […] cells assessed as protection against virus-induced cytopathic effect by MTT assay
# Type: functional, organism-based
# condition description: Human immunodeficiency virus 1, MT4
pEC50: −log10 of the molar value.
Answer no (0) if pEC50 is under 7, and yes (1) if it is 7 or more.

N#Cc1ccc(Nc2nccc(Nc3c(F)cc(-c4ccnc(-c5ccnc(Cl)c5)c4)cc3F)n2)cc1    no (0)
N#Cc1ccc(Nc2nccc(Nc3c(F)cc(-c4cc(Cl)nc(Cl)c4)cc3F)n2)cc1    no (0)
N#Cc1ccc(Nc2nccc(Nc3c(F)cc(-c4ccoc4)cc3F)n2)cc1    yes (1)
N#Cc1ccc(Nc2nccc(Nc3c(F)cc(-c4ccnc(C#N)c4F)cc3F)n2)cc1    yes (1)

====

# assay details: Selectivity index, ratio of CC50 for mock infected human MT4 cells to IC50 for HIV1 IIIB infected human MT4 cells
Entries whose selectivity ratio is below 800 take yes; entries at or above 800 take no.

N#Cc1ccc(Nc2nccc(Nc3c(F)cc(-c4ccsc4)cc3F)n2)cc1    no
N#Cc1ccc(Nc2nccc(Nc3c(F)cc(-c4ccnc(Cl)c4)cc3F)n2)cc1    yes
N#Cc1ccc(Nc2nccc(Nc3c(F)cc(-c4cn[nH]c4)cc3F)n2)cc1    yes
N#Cc1ccc(Nc2nccc(Nc3c(F)cc(-c4ccco4)cc3F)n2)cc1    no
Cc1cc(-c2cc(F)c(Nc3ccnc(Nc4ccc(C#N)cc4)n3)c(F)c2)cc(C)n1    yes
N#Cc1ccc(Nc2nccc(Nc3c(F)cc(-c4ccncc4F)cc3F)n2)cc1    no
N#Cc1ccc(Nc2nccc(Nc3c(F)cc(-c4ccnc(F)c4F)cc3F)n2)cc1    no
N#Cc1ccc(Nc2nccc(Nc3c(F)cc(-c4ccnc(-c5ccnc(Cl)c5)c4)cc3F)n2)cc1    no
N#Cc1ccc(Nc2nccc(Nc3c(F)cc(-c4ccc(N)cc4)cc3F)n2)cc1    no
N#Cc1ccc(Nc2nccc(Nc3c(F)cc(-c4cncnc4)cc3F)n2)cc1    yes
N#Cc1ccc(Nc2nccc(Nc3c(F)cc(-c4coc5ccccc45)cc3F)n2)cc1    no
N#Cc1ccc(Nc2nccc(Nc3c(F)cc(-c4csc5ccccc45)cc3F)n2)cc1    yes

====

# target entity: Human immunodeficiency virus type 1 reverse transcriptase (Human immunodeficiency virus 1, UniProt Q72547)
# assay details: Inhibition of recombinant wild-type HIV1 p66/p51 reverse transcriptase assessed as inhibition of [3H][…] incorporation using poly (rA) as templates incubated for 40 mins by spectrofluorometer
// classify: if (IC50 < 30 nM) Condition met else Condition not met

N#Cc1ccc(Nc2nccc(Nc3c(F)cc(-c4csc5ccccc45)cc3F)n2)cc1    Condition not met
Cc1cc(-c2cc(F)c(Nc3ccnc(Nc4ccc(C#N)cc4)n3)c(F)c2)cc(C)n1    Condition not met
N#Cc1ccc(Nc2nccc(Nc3c(F)cc(-c4ccnc(F)c4)cc3F)n2)cc1    Condition met
N#Cc1ccc(Nc2nccc(Nc3c(F)cc(-c4ccco4)cc3F)n2)cc1    Condition met

====

# assay details: Cytotoxicity against mock infected human MT4 cells by MTT assay
measurement type: CC50 (µM)

N#Cc1ccc(Nc2nccc(Nc3c(F)cc(-c4cc(F)nc(F)c4)cc3F)n2)cc1    11
N#Cc1ccc(Nc2nccc(Nc3c(F)cc(-c4ccoc4)cc3F)n2)cc1    10.6
COc1cc(-c2cc(F)c(Nc3ccnc(Nc4ccc(C#N)cc4)n3)c(F)c2)ccn1    6.7
N#Cc1ccc(Nc2nccc(Nc3c(F)cc(-c4cncnc4)cc3F)n2)cc1    2.7
N#Cc1ccc(Nc2nccc(Nc3c(F)cc(-c4ccsc4)cc3F)n2)cc1    55.4
N#Cc1ccc(Nc2nccc(Nc3c(F)cc(-c4coc5ccccc45)cc3F)n2)cc1    87
N#Cc1ccc(Nc2nccc(Nc3c(F)cc(-c4cc(Cl)nc(Cl)c4)cc3F)n2)cc1    5.4
Cc1cc(-c2cc(F)c(Nc3ccnc(Nc4ccc(C#N)cc4)n3)c(F)c2)ccn1    3.2

====

# assay details: AUC (infinity) in Sprague-Dawley rat at 5 mg/kg, po by LCMS analysis
# Assay type: ADME, organism-based
# Parameters: route oral, time infinity, dose 5 mg/kg
# condition description: in vivo
measurement type: AUC(0-inf) (ng·h/mL)

Cl.N#Cc1ccc(Nc2nccc(Nc3c(F)cc(-c4ccncc4)cc3F)n2)cc1    3350

====

// IC50 lookup, one value per entry
# target entity: UniProtKB Q72547
# assay details: Inhibition of recombinant wild-type HIV1 p66/p51 reverse transcriptase assessed as inhibition of [3H][…] incorporation using poly (rA) as templates incubated for 40 mins by spectrofluorometer
measurement type: IC50

N#Cc1ccc(Nc2nccc(Nc3c(F)cc(-c4ccc(N)cc4)cc3F)n2)cc1    37 nM
N#Cc1ccc(Nc2nccc(Nc3c(F)cc(-c4ccnc(Cl)c4Cl)cc3F)n2)cc1    16 nM
N#Cc1ccc(Nc2nccc(Nc3c(F)cc(-c4cc(Cl)nc(Cl)c4)cc3F)n2)cc1    96 nM
N#Cc1ccc(Nc2nccc(Nc3c(F)cc(-c4cc(F)nc(F)c4)cc3F)n2)cc1    13 nM
N#Cc1ccc(Nc2nccc(Nc3c(F)cc(-c4cccnc4)cc3F)n2)cc1    58 nM
N#Cc1ccc(Nc2nccc(Nc3c(F)cc(-c4cccs4)cc3F)n2)cc1    5.9 nM
N#Cc1ccc(Nc2nccc(Nc3c(F)cc(-c4cncnc4)cc3F)n2)cc1    87 nM
N#Cc1ccc(Nc2nccc(Nc3c(F)cc(-c4ccoc4)cc3F)n2)cc1    10 nM
N#Cc1ccc(Nc2nccc(Nc3c(F)cc(-c4ccncc4F)cc3F)n2)cc1    9.1 nM
N#Cc1ccc(Nc2nccc(Nc3c(F)cc(-c4ccsc4)cc3F)n2)cc1    11 nM

====

# assay details: Half life in Sprague-Dawley rat at 5 mg/kg, po by LCMS analysis
# Format: ADME, organism-based
# condition description: in vivo
measurement type: half-life (min)

Cl.N#Cc1ccc(Nc2nccc(Nc3c(F)cc(-c4ccncc4)cc3F)n2)cc1    50.4
